# credit: patent US20260078103A1

- Test system: T47D cells expressing mutant PI3Ka (H1047R)
- Test Description: In vitro cell proliferation, T47D cells (CellTiter-Glo)
- Format: cell-based
- Measurement Parameters: inhibition of proliferation, 72 hours, read-out: Avg T-47D EC50
EC50 values, listed per item

Please give the measured EC50 for this molecule: Cc1ccc(N2CCN(c3cc4c(C(C)Nc5ccccc5C(=O)O)cc(F)cc4c(=O)n3C)CC2)c(C)n1 (stereo not shown)
1 to 500 nM

Please give the measured EC50 for this molecule: Cc1cc([C@@H](C)Nc2cccc(F)c2C(=O)O)c2cc(N3CCn4c(cnc4C)C3)n(C)c(=O)c2c1
> 15000 nM

* * *

- Test system: T47D cells expressing mutant PI3Ka (H1047R)
- Test Description: In vitro cell proliferation, T47D cells (CellTiter-Glo)
- Assay type: cell-based
- Measurement Parameters: inhibition of proliferation, 72 hours, read-out: Avg T-47D EC50
Value Kind: EC50

Recorded results for 6 compounds are shown here.
Cc1cc([C@@H](C)Nc2ccccc2C(=O)O)c2cc(-c3cnc(CF)c(F)c3)n(C)c(=O)c2c1
1 to 500 nM
Cc1cc(C(C)Nc2ccccc2C(=O)O)c2cc(N3CCC4(CCCCO4)CC3)n(C)c(=O)c2c1 (single isomer, unassigned) [Example 168]
1 to 500 nM
C[C@@H](Nc1ccccc1C(=O)O)c1cc(F)cc2c(=O)n(C)c(-c3ccc(OC4CC(F)(F)C4)nc3)cc12
1 to 500 nM
Cc1cc(C(C)Nc2ccccc2C(=O)O)c2cc(N3C[C@H]4CN(CC(F)(F)F)C[C@H]4C3)n(C)c(=O)c2c1 (single isomer, unassigned) [Example 30]
2000 to 15000 nM
Cc1ccc(N[C@H](C)c2cc(F)cc3c(=O)n(C)c(C4CC4C4CC4)cc23)c(C(=O)O)n1 (stereo in doubt) [Example 45]
2000 to 15000 nM
Cc1cc(C(C)Nc2ccccc2C(=O)O)c2cc(N3CCS(=O)(=O)CC3)n(C)c(=O)c2c1 (single isomer, unassigned) [Example 151]
> 15000 nM

Please give the measured EC50 for this compound: C#Cc1ccc(N[C@H](C)c2cc(F)cc3c(=O)n(C)c(-c4ccc(OCC(F)(F)F)nc4)cc23)c(C(=O)O)n1
1 to 500 nM

Please give the measured EC50 for this compound: Cc1cc(C(C)Nc2ccccc2C(=O)O)c2cc(C3=CCC(C)(C)CC3)n(C)c(=O)c2c1 (single isomer, unassigned) [Example 5]
2000 to 15000 nM

Please give the measured EC50 for this compound: Cc1cc([C@@H](C)Nc2ccccc2C(=O)O)c2cc(-c3ccc(Oc4ccc(F)cc4)nc3)n(C)c(=O)c2c1
500 to 2000 nM

Please give the measured EC50 for this compound: Cc1cc([C@@H](C)Nc2ccccc2C(=O)O)c2cc(C3C[C@H]3C3CC3)n(C)c(=O)c2c1 (single isomer, unassigned)
1 to 500 nM

Please give the measured EC50 for this compound: Cc1cc(C(C)Nc2ccccc2C(=O)O)c2cc(N3CCC(c4ccccc4)C3)n(C)c(=O)c2c1 (single isomer, unassigned) [Example 105]
500 to 2000 nM

Please give the measured EC50 for this compound: COC1(C)CCN(c2cc3c(C(C)Nc4ccccc4C(=O)O)cc(C)cc3c(=O)n2C)CC1 (single isomer, unassigned) [Example 154]
2000 to 15000 nM

Please give the measured EC50 for this compound: Cc1ncncc1N1CCN(c2cc3c([C@@H](C)Nc4cccc(F)c4C(=O)O)cc(F)cc3c(=O)n2C)CC1
1 to 500 nM

Please give the measured EC50 for this compound: Cc1cc(C(C)Nc2ccccc2C(=O)O)c2cc(N3Cc4ccncc4C3)n(C)c(=O)c2c1 (single isomer, unassigned) [Example 106]
2000 to 15000 nM

Please give the measured EC50 for this compound: Cc1cc(C(C)Nc2ccccc2C(=O)O)c2cc(N3CCN(C(=O)CC(C)C)CC3)n(C)c(=O)c2c1 (single isomer, unassigned) [Example 32]
> 15000 nM

Please give the measured EC50 for this compound: Cc1cc(C(C)Nc2ccccc2C(=O)O)c2cc(N3CC(C)(O)C3)n(C)c(=O)c2c1 (single isomer, unassigned) [Example 181]
> 15000 nM

Please give the measured EC50 for this compound: Cc1cc(C(C)Nc2ccccc2C(=O)O)c2cc(N3CCN(C(=O)CC(C)C)CC3)n(C)c(=O)c2c1 (single isomer, unassigned) [Example 33]
1 to 500 nM

Please give the measured EC50 for this compound: Cc1cc(C(C)Nc2ccccc2C(=O)O)c2cc(N3CCN(CC(F)(F)F)CC3)n(C)c(=O)c2c1 (single isomer, unassigned) [Example 9]
2000 to 15000 nM

Please give the measured EC50 for this compound: Cc1cc(C(C)Nc2ccccc2C(=O)O)c2cc(N3CCC(C)(C)CC3)n(C)c(=O)c2c1 (single isomer, unassigned) [Example 1]
1 to 500 nM

* * *

- System: T47D cells expressing mutant PI3Ka (H1047R)
- Test Description: In vitro cell proliferation, T47D cells (CellTiter-Glo)
- Assay type: cell-based
- Measurement Parameters: inhibition of proliferation, 72 hours, read-out: Avg T-47D EC50
Value Kind: EC50

Recorded results for 2 compounds are shown here.
Cc1cc(C(C)Nc2ccccc2C(=O)O)c2cc(N3Cc4cccc(C(F)(F)F)c4C3)n(C)c(=O)c2c1 (stereo not drawn) [Example 67]
500 to 2000 nM
Cc1cc(C(C)Nc2ccccc2C(=O)O)c2cc(N3CC(c4ccccc4)C3)n(C)c(=O)c2c1 (single isomer, unassigned) [Example 76]
> 15000 nM

Please give the measured EC50 for this compound: Cc1cc(C(C)Nc2ccc(Cl)nc2C(=O)O)c2cc(N3CCC(C)(C)CC3)n(C)c(=O)c2c1 (single isomer, unassigned) [Example 4]
2000 to 15000 nM

* * *

EC50 values, listed per item
- Tested on: T47D cells expressing mutant PI3Ka (H1047R)
- Test Description: In vitro cell proliferation, T47D cells (CellTiter-Glo)
- Assay type: cell-based
- Measurement Parameters: inhibition of proliferation, 72 hours, read-out: Avg T-47D EC50

Recorded results for 3 compounds are shown here.
Cc1cc([C@@H](C)Nc2ccccc2C(=O)O)c2cc(N3CC4(CCCN(CC(F)(F)F)C4)C3)n(C)c(=O)c2c1
500 to 2000 nM
Cc1cc([C@@H](C)Nc2ccccc2C(=O)O)c2cc(N3CCN(C)C(C(F)(F)F)C3)n(C)c(=O)c2c1 (single isomer, unassigned)
1 to 500 nM
Cc1cc(C(C)Nc2ccccc2C(=O)O)c2cc(N3CCN4CC(F)(F)CC4C3)n(C)c(=O)c2c1 (single isomer, unassigned) [Example 121]
500 to 2000 nM

Please give the measured EC50 for this compound: Cc1cc(C(C)Nc2ccccc2C(=O)O)c2cc(N3Cc4cc(F)cc(F)c4C3)n(C)c(=O)c2c1 (single isomer, unassigned) [Example 103]
1 to 500 nM

Please give the measured EC50 for this compound: Cc1cc(C(C)Nc2ccccc2C(=O)O)c2cc(N3C[C@@H]4CN(CC(F)(F)F)C[C@H]4C3)n(C)c(=O)c2c1 (single isomer, unassigned) [Example 109]
1 to 500 nM

Please give the measured EC50 for this compound: COc1ccc(-c2cc3c(C(C)Nc4ccccc4C(=O)O)cc(C)cc3c(=O)n2C)cn1 (single isomer, unassigned) [Example 155]
1 to 500 nM

* * *

- Tested on: T47D cells expressing mutant PI3Ka (H1047R)
- Test Description: In vitro cell proliferation, T47D cells (CellTiter-Glo)
- Type: cell-based
- Measurement Parameters: inhibition of proliferation, 72 hours, read-out: Avg T-47D EC50
EC50 values, listed per item

Recorded results for 4 compounds are shown here.
Cc1cc([C@@H](C)Nc2ccccc2C(=O)O)c2cc(C3CC3(F)F)n(C)c(=O)c2c1 (single isomer, unassigned) [Example 385]
1 to 500 nM
Cc1cc([C@@H](C)Nc2cccc(F)c2C(=O)O)c2cc(C3CC3(F)F)n(C)c(=O)c2c1 (single isomer, unassigned) [Example 421]
500 to 2000 nM
CC(Nc1ccccc1C(=O)O)c1cc(F)cc2c(=O)n(C)c(N3C4CCC3CN(CC(F)(F)F)C4)c(F)c12 (single isomer, unassigned) [Example 566]
2000 to 15000 nM
C[C@@H](Nc1cccc(F)c1C(=O)O)c1cc(F)cc2c(=O)n(C)c(-c3ccc(OCC(F)(F)F)nc3)cc12 [Example 441]
500 to 2000 nM

Please give the measured EC50 for this compound: CC(Nc1ccccc1C(=O)O)c1cc(F)cc2c(=O)n(C)c(N3C4CCC3CN(CC(F)(F)F)C4)c(F)c12 (single isomer, unassigned) [Example 567]
1 to 500 nM

Please give the measured EC50 for this compound: Cc1cc(C(C)Nc2ccccc2C(=O)O)c2cc(N3C[C@@H]4CN(CC(F)(F)F)C[C@H]4C3)n(C)c(=O)c2c1 (single isomer, unassigned) [Example 108]
2000 to 15000 nM

Please give the measured EC50 for this compound: C[C@@H](Nc1cccc(F)c1C(=O)O)c1cc(F)cc2c(=O)n(C)c(N3CCC(F)(F)C3)cc12 [Example 414]
1 to 500 nM

Please give the measured EC50 for this compound: Cc1cc([C@@H](C)Nc2ccccc2C(=O)O)c2cc(C3C[C@H]3C)n(C)c(=O)c2c1 (single isomer, unassigned) [Example 313]
1 to 500 nM
